Entry source: BigSolDB 2.1

Cond: in sec-butanol, 298.15 K
Value kind: solubility (mole fraction)

Data request: I am curious: what solubility (mole fraction) value has been reported for Sc1nc2ccccc2[nH]1 ?
Data returned: 0.00972

---

Cond: in isobutanol, 308.15 K
Value kind: solubility (mole fraction)
Reply: number alone, nothing else.

Data request: I am curious: what solubility (mole fraction) value has been reported for Sc1nc2ccccc2[nH]1 ?
Data returned: 0.00813

---

Cond: in MIBK, 288.15 K
Value kind: solubility (mole fraction)
Reply: number alone, nothing else.

Data request: I am curious: what solubility (mole fraction) value has been reported for Sc1nc2ccccc2[nH]1 ?
Data returned: 0.00884

---

Cond: in 2-butoxyethanol, 318.15 K
Value kind: solubility (mole fraction)
Reply: number alone, nothing else.

Data request: I am curious: what solubility (mole fraction) value has been reported for Sc1nc2ccccc2[nH]1 ?
Data returned: 0.0507

---

Cond: in MIBK, 303.15 K
Value kind: solubility (mole fraction)
Reply: number alone, nothing else.

Data request: I am curious: what solubility (mole fraction) value has been reported for Sc1nc2ccccc2[nH]1 ?
Data returned: 0.00983

---

Cond: in ethyl formate, 308.15 K
Value kind: solubility (mole fraction)
Reply: number alone, nothing else.

Data request: I am curious: what solubility (mole fraction) value has been reported for Sc1nc2ccccc2[nH]1 ?
Data returned: 0.0025

---

Cond: in 2-ethoxyethanol, 313.15 K
Value kind: solubility (mole fraction)

Data request: I am curious: what solubility (mole fraction) value has been reported for Sc1nc2ccccc2[nH]1 ?
Data returned: 0.0623

---

Cond: in 2-ethoxyethanol, 303.15 K
Value kind: solubility (mole fraction)
Reply: number alone, nothing else.

Data request: I am curious: what solubility (mole fraction) value has been reported for Sc1nc2ccccc2[nH]1 ?
Data returned: 0.0607

---

Cond: in 2-propoxyethanol, 313.15 K
Value kind: solubility (mole fraction)
Reply: number alone, nothing else.

Data request: I am curious: what solubility (mole fraction) value has been reported for Sc1nc2ccccc2[nH]1 ?
Data returned: 0.0535

---

Cond: in 2-butoxyethanol, 323.15 K
Value kind: solubility (mole fraction)

Data request: I am curious: what solubility (mole fraction) value has been reported for Sc1nc2ccccc2[nH]1 ?
Data returned: 0.0515

---

Cond: in isopropyl acetate, 298.15 K
Value kind: solubility (mole fraction)
Reply: number alone, nothing else.

Data request: I am curious: what solubility (mole fraction) value has been reported for Sc1nc2ccccc2[nH]1 ?
Data returned: 0.00283

---

Cond: in 2-methoxyethanol, 288.15 K
Value kind: solubility (mole fraction)

Data request: I am curious: what solubility (mole fraction) value has been reported for Sc1nc2ccccc2[nH]1 ?
Data returned: 0.0691

---

Cond: in MIBK, 298.15 K
Value kind: solubility (mole fraction)
Reply: number alone, nothing else.

Data request: I am curious: what solubility (mole fraction) value has been reported for Sc1nc2ccccc2[nH]1 ?
Data returned: 0.00945

---

Cond: in isobutanol, 318.15 K
Value kind: solubility (mole fraction)

Data request: I am curious: what solubility (mole fraction) value has been reported for Sc1nc2ccccc2[nH]1 ?
Data returned: 0.0103

---

Cond: in 2-ethoxyethanol, 283.15 K
Value kind: solubility (mole fraction)
Reply: number alone, nothing else.

Data request: I am curious: what solubility (mole fraction) value has been reported for Sc1nc2ccccc2[nH]1 ?
Data returned: 0.0577

---

Cond: in 2-methoxyethanol, 318.15 K
Value kind: solubility (mole fraction)
Reply: number alone, nothing else.

Data request: I am curious: what solubility (mole fraction) value has been reported for Sc1nc2ccccc2[nH]1 ?
Data returned: 0.0775

---

Cond: in MIBK, 308.15 K
Value kind: solubility (mole fraction)
Reply: number alone, nothing else.

Data request: I am curious: what solubility (mole fraction) value has been reported for Sc1nc2ccccc2[nH]1 ?
Data returned: 0.0102

---

Cond: in n-butyl acetate, 298.15 K
Value kind: solubility (mole fraction)
Reply: number alone, nothing else.

Data request: I am curious: what solubility (mole fraction) value has been reported for Sc1nc2ccccc2[nH]1 ?
Data returned: 0.00564

---

Cond: in ethyl formate, 303.15 K
Value kind: solubility (mole fraction)
Reply: number alone, nothing else.

Data request: I am curious: what solubility (mole fraction) value has been reported for Sc1nc2ccccc2[nH]1 ?
Data returned: 0.00228

---

Cond: in ethyl formate, 298.15 K
Value kind: solubility (mole fraction)
Reply: number alone, nothing else.

Data request: I am curious: what solubility (mole fraction) value has been reported for Sc1nc2ccccc2[nH]1 ?
Data returned: 0.00211

---

Cond: in ethyl formate, 313.15 K
Value kind: solubility (mole fraction)
Reply: number alone, nothing else.

Data request: I am curious: what solubility (mole fraction) value has been reported for Sc1nc2ccccc2[nH]1 ?
Data returned: 0.00273

---

Cond: in 2-propoxyethanol, 293.15 K
Value kind: solubility (mole fraction)
Reply: number alone, nothing else.

Data request: I am curious: what solubility (mole fraction) value has been reported for Sc1nc2ccccc2[nH]1 ?
Data returned: 0.0506

---

Cond: in n-butyl acetate, 303.15 K
Value kind: solubility (mole fraction)
Reply: number alone, nothing else.

Data request: I am curious: what solubility (mole fraction) value has been reported for Sc1nc2ccccc2[nH]1 ?
Data returned: 0.00577

---

Cond: in 2-ethoxyethanol, 318.15 K
Value kind: solubility (mole fraction)
Reply: number alone, nothing else.

Data request: I am curious: what solubility (mole fraction) value has been reported for Sc1nc2ccccc2[nH]1 ?
Data returned: 0.0634

---

Cond: in 2-propoxyethanol, 318.15 K
Value kind: solubility (mole fraction)
Reply: number alone, nothing else.

Data request: I am curious: what solubility (mole fraction) value has been reported for Sc1nc2ccccc2[nH]1 ?
Data returned: 0.0545

---

Cond: in 2-methoxyethanol, 283.15 K
Value kind: solubility (mole fraction)

Data request: I am curious: what solubility (mole fraction) value has been reported for Sc1nc2ccccc2[nH]1 ?
Data returned: 0.0682

---

Cond: in 2-butoxyethanol, 303.15 K
Value kind: solubility (mole fraction)
Reply: number alone, nothing else.

Data request: I am curious: what solubility (mole fraction) value has been reported for Sc1nc2ccccc2[nH]1 ?
Data returned: 0.0484

---

Cond: in 2-methoxyethanol, 323.15 K
Value kind: solubility (mole fraction)
Reply: number alone, nothing else.

Data request: I am curious: what solubility (mole fraction) value has been reported for Sc1nc2ccccc2[nH]1 ?
Data returned: 0.0793

---

Cond: in 2-ethoxyethanol, 308.15 K
Value kind: solubility (mole fraction)

Data request: I am curious: what solubility (mole fraction) value has been reported for Sc1nc2ccccc2[nH]1 ?
Data returned: 0.0615

---

Cond: in 2-ethoxyethanol, 323.15 K
Value kind: solubility (mole fraction)

Data request: I am curious: what solubility (mole fraction) value has been reported for Sc1nc2ccccc2[nH]1 ?
Data returned: 0.0646

---

Cond: in n-butyl acetate, 323.15 K
Value kind: solubility (mole fraction)

Data request: I am curious: what solubility (mole fraction) value has been reported for Sc1nc2ccccc2[nH]1 ?
Data returned: 0.00662

---

Cond: in n-butyl acetate, 293.15 K
Value kind: solubility (mole fraction)
Reply: number alone, nothing else.

Data request: I am curious: what solubility (mole fraction) value has been reported for Sc1nc2ccccc2[nH]1 ?
Data returned: 0.00551

---

Cond: in 2-methoxyethanol, 308.15 K
Value kind: solubility (mole fraction)
Reply: number alone, nothing else.

Data request: I am curious: what solubility (mole fraction) value has been reported for Sc1nc2ccccc2[nH]1 ?
Data returned: 0.0742

---

Cond: in MIBK, 318.15 K
Value kind: solubility (mole fraction)
Reply: number alone, nothing else.

Data request: I am curious: what solubility (mole fraction) value has been reported for Sc1nc2ccccc2[nH]1 ?
Data returned: 0.011

---

Cond: in 2-methoxyethanol, 293.15 K
Value kind: solubility (mole fraction)

Data request: I am curious: what solubility (mole fraction) value has been reported for Sc1nc2ccccc2[nH]1 ?
Data returned: 0.0703

---

Cond: in isopropyl acetate, 283.15 K
Value kind: solubility (mole fraction)
Reply: number alone, nothing else.

Data request: I am curious: what solubility (mole fraction) value has been reported for Sc1nc2ccccc2[nH]1 ?
Data returned: 0.00245

---

Cond: in n-butyl acetate, 318.15 K
Value kind: solubility (mole fraction)
Reply: number alone, nothing else.

Data request: I am curious: what solubility (mole fraction) value has been reported for Sc1nc2ccccc2[nH]1 ?
Data returned: 0.00637

---

Cond: in ethylene glycol, 303.15 K
Value kind: solubility (mole fraction)
Reply: number alone, nothing else.

Data request: I am curious: what solubility (mole fraction) value has been reported for Sc1nc2ccccc2[nH]1 ?
Data returned: 0.0193

---

Cond: in 2-propoxyethanol, 288.15 K
Value kind: solubility (mole fraction)
Reply: number alone, nothing else.

Data request: I am curious: what solubility (mole fraction) value has been reported for Sc1nc2ccccc2[nH]1 ?
Data returned: 0.0502

---

Cond: in 2-propoxyethanol, 298.15 K
Value kind: solubility (mole fraction)
Reply: number alone, nothing else.

Data request: I am curious: what solubility (mole fraction) value has been reported for Sc1nc2ccccc2[nH]1 ?
Data returned: 0.0511

---

Cond: in ethylene glycol, 283.15 K
Value kind: solubility (mole fraction)
Reply: number alone, nothing else.

Data request: I am curious: what solubility (mole fraction) value has been reported for Sc1nc2ccccc2[nH]1 ?
Data returned: 0.0137
